- procedure summary: In-vivo pharmacokinetic study in mice
- settings: mouse, plasma, 1 h, patch LS = 25 mg transdermal or oral dispersion 200 mg/kg
metric name: concentration at 1 h (ng/mL)

compound="CCN1CCC[C@H]1CNC(=O)c1cc(S(N)(=O)=O)ccc1OC [Levosulpiride]" units_symbol=ng/mL value_observed=500

----------
- procedure summary: In-vivo pharmacokinetic study in mice
- settings: mouse, plasma, 6 h, patch LS = 25 mg transdermal or oral dispersion 200 mg/kg
metric name: concentration at 6 h

compound="CCN1CCC[C@H]1CNC(=O)c1cc(S(N)(=O)=O)ccc1OC [Levosulpiride]" metric_name="concentration at 6 h" value_observed="400 ng/mL"

----------
- procedure summary: In-vivo pharmacokinetic study in mice
- settings: mouse, plasma, 2 h, oral dispersion 200 mg/kg, read-out: LS plasma concentration
metric name: concentration at 2 h (ng/mL)

compound="CCN1CCC[C@H]1CNC(=O)c1cc(S(N)(=O)=O)ccc1OC [Levosulpiride]" metric_name="concentration at 2 h" value_observed=200
